test: Selectivity index, ratio of LC50 for cytotoxicity against Swiss albino mouse peritoneal macrophages to IC50 for Antitrypanosomal activity against bloodstream forms of Trypanosoma cruzi Y isolated from parasite infected Albino Swiss mouse
Assay type: toxicity
condition.parameters: read-out: Ratio LC50/IC50
Here, each record is paired with measured selectivity ratio data.
Answer as a number with no unit attached.

"CC1=C(C)C(=O)C(I)=CC1=O" has a reported selectivity ratio of 1.5

The value of selectivity ratio measured for the compound "COc1cc2c(c(I)c1OC)C(=O)C=CC2=O" turned out to be 7.5

Entry under test: "COc1c(I)ccc2c1C(=O)C=CC2=O" . Its selectivity ratio was 9.8

response.value for "O=C1C=CC(=O)C([Se]c2ccccc2)=C1" (field: selectivity ratio) = 0.86

# selectivity ratio of "O=C1C(Cl)=C(Cl)C(=O)c2c(I)cccc21" = 3.8

compound "O=C1C=CC(=O)c2c(C#Cc3ccccc3)cccc21" , selectivity ratio observed: 5.7
